test system: human red blood cells (hRBC); assay: Hemolysis of human red blood cells; type: cell-based; details: red cells of human, 1 h, 100
*1 amine or outer side, *2 acyl side, *3 side chain or, on linkers, in order; H or OH if unused. Where a SMILES comes first, the peptide text is derived from it. [ ]: non-standard residue; d: D form. X1 = CC(C)NC[C@H](N[*:1])C(=O)[*:2]; Orn(iPr) = CC(C)NCCC[C@H](N)C(=O)O; Cha = N[C@@H](CC1CCCCC1)C(=O)O; Chg = N[C@H](C(=O)O)C1CCCCC1; Tle = CC(C)(C)[C@H](N)C(=O)O; dDab = NCC[C@@H](N)C(=O)O; Orn = NCCC[C@H](N)C(=O)O; Dab = NCC[C@H](N)C(=O)O; Nva = CCC[C@H](N)C(=O)O
# Hemolysis at 100 μg/ml listing for each entry below
Write the answer as a number in %, unit excluded.

Consider the reported Hemolysis at 100 μg/ml for these compounds:
| COMPOUND | TARGET_OR_SYSTEM | Hemolysis at 100 μg/ml / % |
| --- | --- | --- |
| CC(C)C[C@@H]1NC(=O)[C@@H]2CCCN2C(=O)[C@H]2CCCN2C(=O)[C@H](CO)NC(=O)[C@H](C)NC(=O)[C@H](CC2CCCCC2)NC(=O)[C@H](CCN)NC(=O)[C@H](Cc2c[nH]c3ccccc23)NC(=O)[C@H](CCN)NC(=O)[C@@H](CCN)NC(=O)[C@H](CCCN)NC(=O)[C@H](CCN)NC(=O)[C@H](Cc2ccc(O)cc2)NC(=O)[C@H](C)NC1=O [compound 127] (cyclo(LAY[Dab][Orn][dDab][Dab]W[Dab][Cha]AS[dP]P)) | human red blood cells (hRBC) | 1 |
| CC(C)NCCC[C@@H]1NC(=O)[C@H](CCN)NC(=O)[C@H](CC2CCCCC2)NC(=O)[C@H](CNC(C)C)NC(=O)[C@H](Cc2c[nH]c3ccccc23)NC(=O)[C@@H]2CCCN2C(=O)[C@H]2CCCN2C(=O)[C@H](CO)NC(=O)[C@H](CO)NC(=O)[C@H](C(C)(C)C)NC(=O)[C@H](CCN)NC(=O)[C@H](Cc2c[nH]c3ccccc23)NC(=O)[C@H](CCN)NC(=O)[C@@H](CCN)NC1=O [compound 8] (cyclo(W[X1][Cha][Dab][Orn(iPr)][dDab][Dab]W[Dab][Tle]SS[dP]P)) | human red blood cells (hRBC) | 7 |
| CC(C)[C@@H]1NC(=O)[C@@H]2CCCN2C(=O)[C@H]2CCCN2C(=O)[C@H](CO)NC(=O)[C@H](C)NC(=O)[C@H](C(C)(C)C)NC(=O)[C@H](CCN)NC(=O)[C@H](Cc2c[nH]c3ccccc23)NC(=O)[C@H](CCN)NC(=O)[C@@H](CCN)NC(=O)[C@H](CCCN)NC(=O)[C@H](CCN)NC(=O)[C@H](Cc2ccc(O)cc2)NC(=O)[C@H](C)NC1=O [compound 46] (cyclo(VAY[Dab][Orn][dDab][Dab]W[Dab][Tle]AS[dP]P)) | human red blood cells (hRBC) | 1 |
| CC(C)C[C@@H]1NC(=O)[C@@H]2CCCN2C(=O)[C@H]2CCCN2C(=O)[C@H](CO)NC(=O)[C@H](CO)NC(=O)[C@H](C2CCCCC2)NC(=O)[C@H](CCN)NC(=O)[C@H](Cc2c[nH]c3ccccc23)NC(=O)[C@H](CCN)NC(=O)[C@@H](CCN)NC(=O)[C@H](CCCN)NC(=O)[C@H](CCN)NC(=O)[C@H](Cc2ccc(O)cc2)NC(=O)[C@H](CO)NC1=O [compound 116] (cyclo(LSY[Dab][Orn][dDab][Dab]W[Dab][Chg]SS[dP]P)) | human red blood cells (hRBC) | 3 |
| CCC[C@@H]1NC(=O)[C@@H]2CCCN2C(=O)[C@H]2CCCN2C(=O)[C@H](CO)NC(=O)[C@H](C)NC(=O)[C@H](CC2CCCCC2)NC(=O)[C@H](CCN)NC(=O)[C@H](Cc2c[nH]c3ccccc23)NC(=O)[C@H](CCN)NC(=O)[C@@H](CCN)NC(=O)[C@H](CCCCN)NC(=O)[C@H](CCN)NC(=O)[C@H](C(C)(C)C)NC(=O)[C@H](CO)NC1=O [compound 139] (cyclo([Nva]S[Tle][Dab]K[dDab][Dab]W[Dab][Cha]AS[dP]P)) | human red blood cells (hRBC) | 5 |
| CC(C)C[C@@H]1NC(=O)[C@@H]2CCCN2C(=O)[C@H]2CCCN2C(=O)[C@H](CO)NC(=O)[C@H](C)NC(=O)[C@H](C2CCCCC2)NC(=O)[C@H](CCN)NC(=O)[C@H](Cc2c[nH]c3ccccc23)NC(=O)[C@H](CCN)NC(=O)[C@H](CCN)NC(=O)[C@H](CCCN)NC(=O)[C@H](CCN)NC(=O)[C@H](Cc2ccc(O)cc2)NC(=O)[C@H](CO)NC1=O [compound 94] (cyclo(LSY[Dab][Orn][Dab][Dab]W[Dab][Chg]AS[dP]P)) | human red blood cells (hRBC) | 0 |

Qu. Indicate the recorded Hemolysis at 100 μg/ml value for this compound: CC[C@H](C)[C@@H]1NC(=O)[C@@H]2CCCN2C(=O)[C@H]2CCCN2C(=O)[C@H](CO)NC(=O)[C@H](C)NC(=O)[C@H](C(C)(C)C)NC(=O)[C@H](CCN)NC(=O)[C@H](Cc2c[nH]c3ccccc23)NC(=O)[C@H](CCN)NC(=O)[C@@H](CCN)NC(=O)[C@H](CCCN)NC(=O)[C@H](CCN)NC(=O)[C@H](Cc2ccc(O)cc2)NC(=O)[C@H](CC(N)=O)NC1=O [compound 85] (cyclo(INY[Dab][Orn][dDab][Dab]W[Dab][Tle]AS[dP]P))
Ans. 0

Qu. Indicate the recorded Hemolysis at 100 μg/ml value for this compound: CC(C)C[C@@H]1NC(=O)[C@@H]2CCCN2C(=O)[C@H]2CCCN2C(=O)[C@H](CO)NC(=O)[C@H](CO)NC(=O)[C@H](Cc2c[nH]c3ccccc23)NC(=O)[C@H](CCN)NC(=O)[C@H](Cc2c[nH]c3ccccc23)NC(=O)[C@H](CCN)NC(=O)[C@@H](CCN)NC(=O)[C@H](CCCN)NC(=O)[C@H](CCN)NC(=O)[C@H](Cc2ccc(O)cc2)NC(=O)[C@H](CO)NC1=O [compound 111] (cyclo(LSY[Dab][Orn][dDab][Dab]W[Dab]WSS[dP]P))
Ans. 1

Qu. Indicate the recorded Hemolysis at 100 μg/ml value for this compound: CC[C@H](C)[C@@H]1NC(=O)[C@@H]2CCCN2C(=O)[C@H]2CCCN2C(=O)[C@H](CO)NC(=O)[C@H](C)NC(=O)[C@H](Cc2c[nH]c3ccccc23)NC(=O)[C@H](CCN)NC(=O)[C@H](Cc2c[nH]c3ccccc23)NC(=O)[C@H](CCN)NC(=O)[C@@H](CCN)NC(=O)[C@H](CCCN)NC(=O)[C@H](CCN)NC(=O)[C@H](Cc2ccc(O)cc2)NC(=O)[C@H](CO)NC1=O [compound 110] (cyclo(ISY[Dab][Orn][dDab][Dab]W[Dab]WAS[dP]P))
Ans. 1
